Entries and their interaction score values follow.
Target: T1, 4H2438-AA
T1 chain: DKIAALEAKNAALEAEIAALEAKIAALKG
Assay: two-hybrid library CCmax;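 further: natural log of median RNA to DNA barcode read ratio; higher means stronger binding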
Conditions: mean of both orientations
Answer with a number only.

Use the examples below as a reference point.
[
  {
    "Binder": "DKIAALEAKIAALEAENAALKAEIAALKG [4H2330-AA]",
    "Recorded measurement": -0.853
  },
  {
    "Binder": "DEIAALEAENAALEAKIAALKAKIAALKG [4H174-AA]",
    "Recorded measurement": 2.25
  }
]

Problem: What measured interaction score goes with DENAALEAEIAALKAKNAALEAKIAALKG [4H1142-AA] ?
Solution: -0.434

Problem: And what about the binder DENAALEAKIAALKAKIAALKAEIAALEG [4H1385-AA] ?
Solution: 1.55

Reference source for all entries: paper PMC10397247
